- Test system: SK-MEL-28 melanoma
- method-description: NCI tumour cell line growth inhibition, 48 h
quantity-measured: TGI

Worked cases, answers included:
Tell me measured TGI for CC(=O)[O][Hg][c]1c(C)c(C)c(C)c(C)c1C please.
2.63 µM

Could you please provide reported TGI for COc1cc2c(c(OC)c1OC)-c1ccc(SC)c(=O)cc1C(CC(=O)Oc1ccc([N+](=O)[O-])cc1)C2 (centres undefined) ? Thanks!
> 56.6 µM

Give TGI for all compounds that follow.
1. O=[N+]([O-])C(C(Cl)=C(Cl)Cl)=C(N1CCOCC1)N1CCOCC1
2. COC12C=CC(CC1)C(C)(C)C2=O (centres undefined)

1. > 100 µM
2. > 100 µM

Please supply TGI for each of the following items, keeping them in order.
1. CC(=O)NCc1nc(C#N)c(N)o1
2. C=C(C)[C@@H](C(=O)OC)N1C(=O)c2ccccc2C1=O

1. > 100 µM
2. > 100 µM

Below are 3 compounds. Give each one its TGI.
1. C=CCN1C(=O)/C(=C/c2ccccc2)NC1=S
2. Cn1cc(-c2csc(-c3cccc(F)c3)n2)c2cccnc21
3. COC(=O)CSc1n[nH]c(-c2ccc(O)c([N+](=O)[O-])c2)n1

1: > 100 µM; 2: 32.8 µM; 3: > 100 µM
